List of GI50 values.
Tested on: NCI/ADR-RES
assay-details: Growth inhibition of human NCI/ADR-RES cells after 48 hrs by SRB assay
Assay type: functional
property: GI50

item-smiles	property	result
O=C(Nc1ccc(Cc2ccccc2)cc1)Nc1nn(C(=O)Nc2ccc(Cc3ccccc3)cc2)c2ccccc12	GI50	> 100 µM
COc1ccc(NC(=O)n2nc(N)c3ccccc32)cc1OC	GI50	37.6 µM
O=C(Nc1ccccc1OC(F)(F)F)Nc1n[nH]c2ccccc12	GI50	44.2 µM
CCCCOc1ccc(NC(=O)n2nc(N)c3ccccc32)cc1	GI50	23.7 µM
Nc1nn(C(=O)Nc2ccc(Cc3ccccc3)cc2)c2ccccc12	GI50	7.87 µM
COc1ccc(NC(=O)Nc2n[nH]c3ccccc23)cc1	GI50	> 100 µM
COc1ccccc1NC(=O)n1nc(N)c2ccccc21	GI50	90.7 µM
O=C(Nc1cc(C(F)(F)F)ccc1F)Nc1n[nH]c2ccccc12	GI50	> 100 µM
Nc1nn(C(=O)Nc2c(F)cccc2F)c2ccccc12	GI50	56.5 µM

* * *

Reported values of GI50 for individual entries
Tested on: SNB-19
assay-details: Growth inhibition of human SNB19 cells after 48 hrs by SRB assay
Type: functional
condition-parameters: SNB-19, 48 h

item-smiles	GI50
O=C(Nc1ccccc1OC(F)(F)F)Nc1n[nH]c2ccccc12	78.3 µM
COc1ccc(NC(=O)n2nc(N)c3ccccc32)cc1OC	> 100 µM
O=C(Nc1ccc(Cc2ccccc2)cc1)Nc1nn(C(=O)Nc2ccc(Cc3ccccc3)cc2)c2ccccc12	> 100 µM
Nc1nn(C(=O)Nc2ccc(Cc3ccccc3)cc2)c2ccccc12	22.8 µM
O=C(Nc1cc(C(F)(F)F)ccc1F)Nc1n[nH]c2ccccc12	> 100 µM
COc1ccc(NC(=O)Nc2n[nH]c3ccccc23)cc1	> 100 µM
COc1ccccc1NC(=O)n1nc(N)c2ccccc21	> 100 µM
CCCCOc1ccc(NC(=O)n2nc(N)c3ccccc32)cc1	42.7 µM
Nc1nn(C(=O)Nc2c(F)cccc2F)c2ccccc12	< 100 µM

* * *

Test system: HCT-116
assay-details: Growth inhibition of human HCT116 cells after 48 hrs by SRB assay
Format: functional
condition-parameters: HCT-116, 48 h

item-smiles	unit	rel	GI50
CCCCOc1ccc(NC(=O)n2nc(N)c3ccccc32)cc1	µM	=	19.9
COc1ccccc1NC(=O)n1nc(N)c2ccccc21	µM	>	100
O=C(Nc1ccc(Cc2ccccc2)cc1)Nc1nn(C(=O)Nc2ccc(Cc3ccccc3)cc2)c2ccccc12	µM	>	100
COc1ccc(NC(=O)n2nc(N)c3ccccc32)cc1OC	µM	=	43.5
COc1ccc(NC(=O)Nc2n[nH]c3ccccc23)cc1	µM	>	100
O=C(Nc1ccccc1OC(F)(F)F)Nc1n[nH]c2ccccc12	µM	=	16.2
O=C(Nc1cc(C(F)(F)F)ccc1F)Nc1n[nH]c2ccccc12	µM	>	100
Nc1nn(C(=O)Nc2ccc(Cc3ccccc3)cc2)c2ccccc12	µM	=	7.03
Nc1nn(C(=O)Nc2c(F)cccc2F)c2ccccc12	µM	=	34.8

* * *

Here the recorded log10 GI50 is given for each entry.
System: SK-MEL-5
assay-details: Growth inhibition of human SK-MEL-5 cells after 48 hrs by SRB assay
Format: functional
condition-parameters: SK-MEL-5, 48 h
property: log10 GI50 (log10 of the value in µM)

item-smiles	log10 GI50
COc1ccc(NC(=O)n2nc(N)c3ccccc32)cc1OC	1.45
CCCCOc1ccc(NC(=O)n2nc(N)c3ccccc32)cc1	1.18
Nc1nn(C(=O)Nc2c(F)cccc2F)c2ccccc12	1.60
O=C(Nc1ccccc1OC(F)(F)F)Nc1n[nH]c2ccccc12	1.46
Nc1nn(C(=O)Nc2ccc(Cc3ccccc3)cc2)c2ccccc12	0.35
